system: PC-3; test: NCI tumour cell line growth inhibition, 48 h
Calls of active or inactive are those of the source. Rule as the data show it: active = GI50 up to about 1.1 µM and inactive = higher.
Field: GI50. Provide a value for each of the compounds that follow.

Task item: Consider the compound "CCCCn1cnnc1NS(=O)(=O)c1cc(C)c(Cl)cc1SCC(=O)O" . State its measured GI50.
Reply: > 10 µM (inactive)

Task item: Consider the compound "CN1CCCCCC(=N\O)/C(=N/O)CCCCC1" . State its measured GI50.
Reply: > 100 µM (inactive)

Task item: Consider the compound "CC(C)[Si](OC1=CCC[C@H]2NC(=O)[C@@H](Cc3ccccc3)[C@@]12C)(C(C)C)C(C)C" . State its measured GI50.
Reply: 3.37 µM (inactive)

Task item: Consider the compound "C/C(CC(O)(C(F)(F)F)C(F)(F)F)=N\O" . State its measured GI50.
Reply: > 10 µM (inactive)

Task item: Consider the compound "COc1cc(/C=C2\Cc3cc(OC)c(OC)cc3C2=O)cc(OC)c1" . State its measured GI50.
Reply: > 79.1 µM (inactive)

Task item: Consider the compound "CC(=O)c1ccc(/N=N/N2CCCC2)cc1" . State its measured GI50.
Reply: > 100 µM (inactive)

Task item: Consider the compound "O=C(c1c(F)c(F)c(F)c(F)c1F)n1c(O)nc2ccccc21" . State its measured GI50.
Reply: 7.93 µM (inactive)

* * *

test system: SW-620; test: NCI tumour cell line growth inhibition, 48 h
Active and inactive are the calls of the source. Cut-off read from the data, not from the text of the source: active = GI50 up to about 1.1 µM and inactive = higher. Where a SMILES comes first, the peptide text is derived from it. The star is where a group is joined. Cbz = O=C(OCc1ccccc1)*; Boc = CC(C)(C)OC(=O)*; Bn = c1ccc(C*)cc1
Please answer using one outcome listed in YES = active, NO = inactive

Task item: Returns: the outcome recorded for C#CCC1(C(=O)OCC)C(=O)c2ccccc2N(C)C1=O (configuration not stated) in this assay.
Reply: NO

Task item: Returns: the outcome recorded for "Oc1ccc2c(c1)c1c(n2CCN2CCOCC2)-c2ccccc2CC1" in this assay.
Reply: NO

Task item: Returns: the outcome recorded for CN1C(=O)C2CCCC(=O)N2c2cccnc21 (configuration not stated) in this assay.
Reply: NO

Task item: Returns: the outcome recorded for CC(C)(C)OC(=O)NC(Cc1ccc(OCc2ccccc2)cc1)C(=O)NC(CCCCNC(=O)OCc1ccccc1)C(=O)O (configuration not stated) (Boc-Tyr(Bn)-Lys(Cbz)-OH; configuration not given here) in this assay.
Reply: NO

Task item: Returns: the outcome recorded for CCOC(=O)C1CCCCN1CCc1c[nH]c2ccccc12 (configuration not stated) in this assay.
Reply: NO

Task item: Returns: the outcome recorded for "O=C(C/N=C(\CN(c1ccccc1)c1ccccc1)Oc1ccc(Cl)cc1Cl)n1ccnc1" in this assay.
Reply: NO

Task item: Returns: the outcome recorded for CC(=O)O[C@H]1C(=O)[C@@]2(C)C([C@H](OC(=O)c3ccccc3)[C@]3(O)C[C@H](OC(=O)[C@H](O)[C@H](NC(=O)c4ccccc4)c4ccc(Cl)cc4)C(C)=C1C3(C)C)C1(OC(C)=O)CO[C@@H]1C[C@@H]2O (some centres not stated) in this assay.
Reply: YES

Task item: Returns: the outcome recorded for C[C@]12CC[C@H](O)CC1CCC[C@@H]2O (some centres not stated) in this assay.
Reply: NO

Task item: Returns: the outcome recorded for "COc1cc([C@@H]2c3cc4c(cc3[C@@H](c3c(O)cc(O)c5c3O[C@H](c3ccc(O)c(O)c3)[C@H](OC(=O)c3cc(O)c(O)c(O)c3)C5)[C@H]3COC(=O)[C@H]23)OCO4)cc(OC)c1O" in this assay.
Reply: NO

Task item: Returns: the outcome recorded for O=C(CCCC(=O)N1CC(CCl)c2ccc([N+](=O)[O-])cc21)N1CC(CCl)c2ccc([N+](=O)[O-])cc21 (configuration not stated) in this assay.
Reply: NO

Task item: Returns: the outcome recorded for "C/C(CC(O)(C(F)(F)F)C(F)(F)F)=N\O" in this assay.
Reply: NO

Task item: Returns: the outcome recorded for "COc1cc(/N=C(\N)N=C(N)N)c2ncccc2c1" in this assay.
Reply: NO

Task item: Returns: the outcome recorded for "O=C(N/N=C(COc1cccc(Cl)c1)\N=C\c1cccnc1)c1ccncc1" in this assay.
Reply: NO

Task item: Returns: the outcome recorded for "CC(=O)Nc1c(S(=O)(=O)c2ccccc2)c(C)c(C)n1Cc1ccccc1" in this assay.
Reply: NO

Task item: Returns: the outcome recorded for "c1ccc2c(c1)[nH]c1c[nH]c3c4cccnc4nc-3c12" in this assay.
Reply: NO

Task item: Returns: the outcome recorded for CC(=O)NC1C(OCc2ccccc2)OC(CO)C(O)C1OC(C)C(=O)N[C@@H](C)C(=O)N[C@H](CCC(=O)NCCNCCNc1c2ccccc2nc2cccc([N+](=O)[O-])c12)C(N)=O (some centres not stated) in this assay.
Reply: YES

Task item: Returns: the outcome recorded for COC(=O)C(/C(=N/N)C(=O)Nc1cccc(O)c1)c1nc2ccccc2nc1O (configuration not stated) in this assay.
Reply: NO

* * *

tested on: BT-549; assay: NCI tumour cell line growth inhibition, 48 h
Active and inactive are the calls of the source. Rule as the data show it: active = GI50 up to about 1.1 µM and inactive = higher.
Field: GI50. Provide a value for each of the molecules that follow.

Task item: Consider the molecule COC(=O)C(Cc1cn(C(C)n2cc(CC(NC(C)=O)C(=O)OC)c3ccccc32)c2ccccc12)NC(C)=O (stereo not given) . State its measured GI50.
Reply: > 100 µM (inactive)

Task item: Consider the molecule "N#Cc1c(-c2ccccc2)c(/C=N/c2ccc(F)cc2)c(=O)n2c1[nH]c1ccccc12" . State its measured GI50.
Reply: 35.5 µM (inactive)

Task item: Consider the molecule COc1cc(/C=C2\C(=O)N(c3ccccc3Cl)C(c3ccccc3)S2(=O)=O)cc(OC)c1OC (stereo not given) . State its measured GI50.
Reply: 36 µM (inactive)

Task item: Consider the molecule "O=C(N/N=C(COc1cccc(Cl)c1)\N=C\c1cccnc1)c1ccncc1" . State its measured GI50.
Reply: > 100 µM (inactive)

Task item: Consider the molecule "CC(C)(C)C(=O)CP(=O)(O)O" . State its measured GI50.
Reply: > 100 µM (inactive)

* * *

tested on: SW-620; assay: NCI tumour cell line growth inhibition, 48 h
Activity calls are given as the source filed them. No stated cut-off is given here; in the data, active = GI50 up to about 1.1 µM and inactive = higher. Non-standard residues stand in square brackets, D forms with d. Residues, ends and D or L forms follow the SMILES beside them. ξ: configuration not given here. *: point of attachment. Cbz = O=C(OCc1ccccc1)*; ξK = NCCCCC(N)C(=O)O
Please answer using one outcome listed in active, inactive

Task item: Returns: the outcome recorded for "Cn1nc(S(N)(=O)=O)s/c1=N/C(N)=S" in this assay.
Reply: inactive

Task item: Returns: the outcome recorded for "COC(=O)NNC(=O)OC.COC(=O)Nc1ccccc1NC(=O)OC.COC(=O)Oc1nn(C(=O)OC)c(=O)c2ccccc12" in this assay.
Reply: inactive

Task item: Returns: the outcome recorded for "COc1cc(/C=C/c2cc(=O)cc(/C=C/c3ccc(O)c(OC)c3)o2)ccc1O" in this assay.
Reply: inactive

Task item: Returns: the outcome recorded for CCC(NC(C)c1ccccc1)C(O)c1ccc(OCc2ccccc2)c(OCc2ccccc2)c1 (stereo unspecified) in this assay.
Reply: inactive

Task item: Returns: the outcome recorded for "CO/C(=N\N=C\c1cccc(C(F)(F)F)c1)c1ccncc1" in this assay.
Reply: inactive

Task item: Returns: the outcome recorded for "O=c1[nH]nc(-c2ccccc2)c2[nH]c(-c3ccccc3)cc12" in this assay.
Reply: inactive

Task item: Returns: the outcome recorded for NCCCCC(NC(=O)OCc1ccccc1)C(=O)NCC(N)=O (stereo unspecified) (Cbz-[ξK]-Gly-NH2) in this assay.
Reply: inactive

Task item: Returns: the outcome recorded for "COc1ccc(NCc2cnc3nc(N)nc(N)c3c2C)cc1" in this assay.
Reply: active

Task item: Returns: the outcome recorded for "COC(=O)c1c(N)n[nH]c1N" in this assay.
Reply: inactive

Task item: Returns: the outcome recorded for "c1ccc(/N=C2\C(=N/c3ccccc3)N(C3CCCCC3)/C(=N\C3CCCCC3)N2c2ccccc2)cc1" in this assay.
Reply: inactive

Task item: Returns: the outcome recorded for "NNC1=N/C(=C\c2ccccc2O)C(=O)N1" in this assay.
Reply: inactive

Task item: Returns: the outcome recorded for O=C(O)CCC(NC(=O)/C(=C/c1ccccc1)NC(=O)c1ccccc1)C(=O)O (stereo unspecified) in this assay.
Reply: inactive

Task item: Returns: the outcome recorded for "Cc1ccc(C(=O)/C=C(\O)C(=O)NC23CC4CC(CC(C4)C2)C3)cc1" in this assay.
Reply: inactive

Task item: Returns: the outcome recorded for "O=C(O)Cc1ccc(/N=N/c2c(O)c(C(=O)O)cc3ccccc23)cc1" in this assay.
Reply: inactive

Task item: Returns: the outcome recorded for "CC(/C=C/c1ccccc1)=N\NC(=S)N/N=C(C)/C=C/c1ccccc1" in this assay.
Reply: inactive

Task item: Returns: the outcome recorded for "O=c1c2ccccc2c2nc3ccccc3nc2n1C1CCCCC1" in this assay.
Reply: inactive

Task item: Returns: the outcome recorded for COc1cc(/C=C2\C(=O)N(c3ccccc3Cl)C(c3ccccc3)S2(=O)=O)cc(OC)c1OC (stereo unspecified) in this assay.
Reply: inactive

Task item: Returns: the outcome recorded for "COc1cc2c(cc1OCCCN1CCOCC1)N=C[C@@H]1CCCN1C2=O" in this assay.
Reply: inactive

Task item: Returns: the outcome recorded for "CC(C)[Si](OC1=CCC[C@H]2NC(=O)[C@@H](Cc3ccccc3)[C@@]12C)(C(C)C)C(C)C" in this assay.
Reply: inactive

Task item: Returns: the outcome recorded for "N=C(Nc1nc(-c2ccccn2)cc2ccccc12)c1ccccn1" in this assay.
Reply: active

Task item: Returns: the outcome recorded for "O=C(O)c1ccc(C=C2Sc3ccccc3S2)cc1" in this assay.
Reply: inactive

Data credit: ChEMBL document CHEMBL1201862
